Source: patent US20240301052A1

Give pEC50 for every item shown.
TARGET ENTITY: T1, human SLC34A2 (human, UniProt O95436 1-690)
T1 construct: whole, on cells; also called human solute carrier 34 A2; NaPi2b
T1 sequence (looked up): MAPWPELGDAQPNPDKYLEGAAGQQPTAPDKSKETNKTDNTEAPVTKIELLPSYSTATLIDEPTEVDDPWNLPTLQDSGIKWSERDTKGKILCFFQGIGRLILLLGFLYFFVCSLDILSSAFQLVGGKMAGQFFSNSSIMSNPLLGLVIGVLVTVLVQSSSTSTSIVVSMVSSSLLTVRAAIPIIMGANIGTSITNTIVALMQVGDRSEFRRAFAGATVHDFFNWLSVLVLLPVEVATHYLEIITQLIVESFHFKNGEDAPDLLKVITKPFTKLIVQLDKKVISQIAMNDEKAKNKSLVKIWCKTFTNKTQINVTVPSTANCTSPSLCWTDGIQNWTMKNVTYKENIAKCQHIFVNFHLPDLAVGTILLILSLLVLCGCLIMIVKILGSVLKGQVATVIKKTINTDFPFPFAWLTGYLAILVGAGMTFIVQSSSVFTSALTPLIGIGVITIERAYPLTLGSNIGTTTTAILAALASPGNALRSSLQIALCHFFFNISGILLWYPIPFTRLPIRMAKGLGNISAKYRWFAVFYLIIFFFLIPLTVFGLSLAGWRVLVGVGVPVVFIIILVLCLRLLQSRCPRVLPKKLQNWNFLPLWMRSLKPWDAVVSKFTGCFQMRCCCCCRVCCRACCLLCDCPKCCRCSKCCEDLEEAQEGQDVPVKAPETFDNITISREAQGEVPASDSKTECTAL
METHOD: FACS, RMG-1 cells
Please report pEC50 as the negative decimal logarithm of the molar concentration, giving only the number.

pEC50 for 30H9B8F9.p1.z6 hIgG1 (antibody, V domains shown, humanized hIgG1) VH: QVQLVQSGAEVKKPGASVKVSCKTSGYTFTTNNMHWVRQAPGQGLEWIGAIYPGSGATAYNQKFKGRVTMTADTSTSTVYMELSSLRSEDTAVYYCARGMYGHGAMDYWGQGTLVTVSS VL: DIQLTQSPSFLSASVGDRVTITCKASQDVGTAVAWYQQKPGKSPKLLIYWATTRHSGVPDRFSGSGSGTEFTFTISSLQPEDFATYFCQQYSSNPLTFGQGTKLEIK is 8.75

pEC50 for 62G10E4G8 VH_P3/VL hIgG1 (antibody, V domains shown, PTM-derisked chimeric, hIgG1; that P3 is the NA version follows from the humanized .p3 chains; also called 62G10E4G8.p3 hIgG1) VH: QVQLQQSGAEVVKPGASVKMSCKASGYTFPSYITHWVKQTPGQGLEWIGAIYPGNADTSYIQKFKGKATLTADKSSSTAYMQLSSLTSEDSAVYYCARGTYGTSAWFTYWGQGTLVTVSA VL: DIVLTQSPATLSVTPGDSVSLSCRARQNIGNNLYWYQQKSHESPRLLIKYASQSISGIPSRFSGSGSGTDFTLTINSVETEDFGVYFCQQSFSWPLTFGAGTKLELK is 7.83

pEC50 for xi91C9F1 hIgG1 (antibody, V domains shown, chimeric, hIgG1) VH: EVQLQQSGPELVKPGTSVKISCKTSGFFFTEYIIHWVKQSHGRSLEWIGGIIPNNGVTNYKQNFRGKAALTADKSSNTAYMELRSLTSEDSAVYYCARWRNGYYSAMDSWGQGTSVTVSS VL: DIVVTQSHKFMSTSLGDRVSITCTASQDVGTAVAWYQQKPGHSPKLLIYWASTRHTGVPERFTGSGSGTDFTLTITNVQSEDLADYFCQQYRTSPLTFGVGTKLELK is 8.75

pEC50 for 91C9F1.p1.z10 hIgG1 (antibody, V domains shown, humanized hIgG1) VH: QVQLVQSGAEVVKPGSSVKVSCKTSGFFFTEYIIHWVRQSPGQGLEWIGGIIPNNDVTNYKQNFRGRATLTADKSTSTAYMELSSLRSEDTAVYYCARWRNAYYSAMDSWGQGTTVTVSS VL: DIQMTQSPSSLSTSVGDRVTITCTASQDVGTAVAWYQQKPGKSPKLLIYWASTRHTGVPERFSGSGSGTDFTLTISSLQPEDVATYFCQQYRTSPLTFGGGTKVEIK is 8.41

pEC50 for 91C9F1.p1.z4 hIgG1 (antibody, V domains shown, humanized hIgG1) VH: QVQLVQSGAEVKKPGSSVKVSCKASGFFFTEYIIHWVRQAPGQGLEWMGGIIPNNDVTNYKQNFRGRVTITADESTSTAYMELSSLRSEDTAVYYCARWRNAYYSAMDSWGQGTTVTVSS VL: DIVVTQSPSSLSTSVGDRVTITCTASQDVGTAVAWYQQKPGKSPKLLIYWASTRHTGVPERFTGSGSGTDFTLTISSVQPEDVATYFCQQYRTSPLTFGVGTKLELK is 8.49
